System: Wt-BaF3
assayMethodText: Parental Ba/F3 cell proliferation (CellTiter Glo)
Format: cell-based, murine
particulars: Mus musculus, parental BaF/3 cells, 48 hours
pIC50: −log10 of the molar value.
Class 1.0: pIC50 at least 5. Class 0.0: pIC50 below 5.

smilesNotation	cat
CCN1CN(c2cc(NC(=O)c3cccc(C(F)(F)F)c3)ccc2C)Cc2cnc(Nc3ccc(C)nc3)nc21	1.0
Cc1ccc(NC(=O)c2cccc(C(F)(F)F)c2)cc1N1Cc2cnc(Nc3ccc(N4CCOCC4)nc3)nc2N(C)C1	1.0
Cc1ccc(Nc2ncc3c(n2)N(c2ccccc2)CN(c2cc(NC(=O)c4cccc(C(F)(F)F)c4)ccc2C)C3)cn1	0.0
Cc1ccc(NC(=O)c2cccc(C(F)(F)F)c2)cc1N1Cc2cnc(N[C@@H](C)CO)nc2N(C)C1	0.0
COc1ccc(NC(=O)c2cccc(C(F)(F)F)c2)cc1N1Cc2cnc(Nc3ccc(C)nc3)nc2N(C)C1	0.0
CCN(CC)c1ccc(Nc2ncc3c(n2)N(C)CN(c2cc(NC(=O)c4cccc(C(F)(F)F)c4)ccc2C)C3)cn1	1.0
Cc1ccc(NC(=O)c2cccc(C(F)(F)F)c2)cc1N1Cc2cnc(NCCN3CCOCC3)nc2N(C)C1	1.0
Cc1ccc(Nc2ncc3c(n2)N(C)CN(c2cc(C(=O)Nc4cccc(C(F)(F)F)c4)ccc2C)C3)cn1	1.0
Cc1ccc(Nc2ncc3c(n2)N(C)CN(c2cccc(NC(=O)c4cccc(C(F)(F)F)c4)c2)C3)cn1	0.0
COc1cc(C(=O)N2CCN(C)CC2)ccc1Nc1ncc2c(n1)N(C)CN(c1cc(NC(=O)c3cccc(C(F)(F)F)c3)ccc1C)C2	1.0

====

measuredOn: BaF3-TEL-LYN (Homo sapiens, UniProt P07948)
Construct: fused on or other part: P41212 (Transcription factor ETV6)
Sequence (P07948 whole entry, change not shown, the tested form may be a part): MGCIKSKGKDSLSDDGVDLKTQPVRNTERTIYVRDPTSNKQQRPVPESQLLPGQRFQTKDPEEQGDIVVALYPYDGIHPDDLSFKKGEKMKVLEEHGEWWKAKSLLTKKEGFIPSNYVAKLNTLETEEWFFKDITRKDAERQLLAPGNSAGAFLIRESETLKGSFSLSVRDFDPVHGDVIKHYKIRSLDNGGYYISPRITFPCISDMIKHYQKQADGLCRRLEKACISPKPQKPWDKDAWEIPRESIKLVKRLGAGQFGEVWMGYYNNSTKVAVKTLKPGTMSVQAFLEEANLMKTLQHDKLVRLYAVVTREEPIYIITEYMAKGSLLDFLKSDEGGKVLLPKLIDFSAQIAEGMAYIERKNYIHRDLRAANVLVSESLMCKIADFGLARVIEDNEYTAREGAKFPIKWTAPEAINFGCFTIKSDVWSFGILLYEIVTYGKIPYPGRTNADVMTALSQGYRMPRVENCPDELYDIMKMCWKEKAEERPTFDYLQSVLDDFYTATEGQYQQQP
assayMethodText: Antiproliferative activity, kinase-dependent Ba/F3 cells (MTT/MTS)
Assay type: cell-based, murine
particulars: 48 hours, cell viability, read-out: tel-LYN IC50
Quick reference for GI50 among some compounds

smilesNotation	measuredOn	ltGtEq	GI50 [µM]
Cc1ccc(C(F)(F)F)cc1N1Cc2cnc(Nc3ccc(N4CCOCC4)nc3)nc2N(C)C1	BaF3-TEL-LYN (Homo sapiens, UniProt P07948)	=	4.29
Cc1ccc(NC(=O)c2cccc(C(F)(F)F)c2)cc1N1Cc2cnc(N[C@H](C)CO)nc2N(C)C1	BaF3-TEL-LYN (Homo sapiens, UniProt P07948)	=	4.48
Cc1cc(Nc2ncc3c(n2)N(C)CN(c2cc(NC(=O)c4cccc(C(F)(F)F)c4)ccc2C)C3)n(C)n1	BaF3-TEL-LYN (Homo sapiens, UniProt P07948)	=	0.927
Cc1ccc(Nc2ncc3c(n2)N(C)CN(c2cc(C(=O)NCCN4CCOCC4)ccc2C)C3)cn1	BaF3-TEL-LYN (Homo sapiens, UniProt P07948)	>	10

====

measuredOn: BaF3-BCR/ABL-T315I (Homo sapiens, UniProt P00519, T315I, cells depend on it)
Construct: fused on or other part: P11274 (Breakpoint cluster region protein)
assayMethodText: Antiproliferative activity, kinase-dependent Ba/F3 cells (MTT/MTS)
Format: cell-based, murine
particulars: 48 hours, cell viability, read-out: BCR/ABL T315I IC50

smilesNotation	unitSymbol	ltGtEq	GI50
Cc1ccc(Nc2ncc3c(n2)N(C)CN(c2cc(C(=O)NCCN4CCOCC4)ccc2C)C3)cn1	µM	>	10
CN1CN(c2cccc(C(F)(F)F)c2)Cc2cnc(Nc3ccc(N4CCOCC4)nc3)nc21	µM	>	10
Cc1ccc(NC(=O)c2cccc(C(F)(F)F)c2)cc1N1Cc2cnc(NCCc3c[nH]cn3)nc2N(C)C1	µM	=	4.45
Cc1ccc(NC(=O)c2cccc(C(F)(F)F)c2)cc1N1Cc2cnc(Nc3ccc(N4CCC(O)CC4)nc3)nc2N(C)C1	µM	=	0.226
COc1ccc(NC(=O)c2cccc(C(F)(F)F)c2)cc1N1Cc2cnc(Nc3ccc(C)nc3)nc2N(C)C1	µM	=	8
Cc1ccc(NC(=O)c2cccc(C(F)(F)F)c2)cc1N1Cc2cnc(N[C@H](C)CO)nc2N(C)C1	µM	>	10
CCN(CC)c1ccc(Nc2ncc3c(n2)N(C)CN(c2cc(NC(=O)c4cccc(C(F)(F)F)c4)ccc2C)C3)cn1	µM	=	4.5
CCN1CN(c2cc(NC(=O)c3cccc(C(F)(F)F)c3)ccc2C)Cc2cnc(Nc3ccc(C)nc3)nc21	µM	=	0.881
